- Tested on: S. cerevisiae Burl-1 ts mutant growth, BacTiter-Glo, 38.5C 24 h
- TEST_DETAILS: restored growth of temperature-sensitive Burl-1 yeast – whole organism, S. cerevisiae, Burl-1 ts mutant, luminescence, counter-screen for SUMOylation pathway inhibitor project, dose response (AID 463199)
Calls of active or inactive are those of the source.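 How the source made its calls: active means AC50, the dose giving half-maximal effect, exceeds a fixed cutoff for a compound that rescues yeast growth under heat; inactive means the rest, inconclusive results apart.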
Just give me one of these, please: yes (1) = active, no (0) = inactive

INSERT INTO measurements (compound, label_value) VALUES
  ('CCOc1ccc(-c2nnc(SCC(=O)N3CCCC3)o2)cc1', 'no (0)'),
  ('O=C(CN(CC1CCCO1)C(=O)CNS(=O)(=O)c1ccc(F)cc1)NCc1ccccc1 (stereo unspecified)', 'no (0)'),
  ('CCCCOc1ccc(CSC(=N)N)cc1Cl', 'no (0)'),
  ('CC(=O)N1CC(=O)Nc2ccc(Cl)cc2C1c1ccccc1 (stereo unspecified)', 'no (0)'),
  ('O=c1cnc2cc([N+](=O)[O-])ccc2[nH]1', 'no (0)'),
  ('CCN(CC)CCCN1C(=O)C(=O)/C(=C(/O)c2ccccc2)C1c1cc(OC)ccc1OC (stereo unspecified)', 'no (0)'),
  ('CCOC(=O)c1cnc2c(OC)cccc2c1N1CCN(c2ccccc2OC)CC1', 'no (0)'),
  ('CC(C)c1ccc(NC(=O)COc2nnc(-c3cccs3)c(-c3cccs3)n2)cc1', 'no (0)');

What is the recorded call for this compound in the test? CN1CCN(C(=O)CCN2C(=O)/C(=C/c3ccccc3Cl)SC2=S)CC1 no (0)

What is the recorded call for this compound in the test? Cc1ccc(C(C[N+](=O)[O-])c2c(C)[nH]n(-c3ccccc3)c2=O)cc1 (stereo unspecified) yes (1)

What is the recorded call for this compound in the test? CC1CN=C(NCc2ccccc2)S1 (stereo unspecified) no (0)

###

- System: S. cerevisiae Burl-1 ts mutant growth, BacTiter-Glo, 38.5C 24 h
- TEST_DETAILS: restored growth of temperature-sensitive Burl-1 yeast – whole organism, S. cerevisiae, Burl-1 ts mutant, luminescence, counter-screen for SUMOylation pathway inhibitor project, dose response (AID 463199)
Activity calls are given as the source filed them.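 Rule for the calls: active = AC50, the dose giving half-maximal effect, exceeds a fixed cutoff for a compound that rescues yeast growth under heat; inactive = the rest, inconclusive results apart.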
Just give me one of these, please: T (active), F (inactive)

INSERT INTO results (molecule, label_value) VALUES
  ('CCCOc1ccc([N+](=O)[O-])c(N)c1', 'F'),
  ('CN(C)CCN(Cc1ccc(Cl)cc1)c1ccccn1', 'T'),
  ('COc1ccccc1C(=O)NC(=O)COC(=O)Cc1ccccc1[N+](=O)[O-]', 'F');

What is the recorded call for this molecule in the test? O=C(Nc1ccc2c(c1)oc1ccccc12)C1CC1 F

What is the recorded call for this molecule in the test? CC(C)CCCN1CCN=C1Nc1ccccc1 F

What is the recorded call for this molecule in the test? CCN1CCCC(NC(=O)c2scc3c2CCCC3)C1 (centres undefined) F

###

- Test system: S. cerevisiae Burl-1 ts mutant growth, BacTiter-Glo, 38.5C 24 h
- TEST_DETAILS: restored growth of temperature-sensitive Burl-1 yeast – whole organism, S. cerevisiae, Burl-1 ts mutant, luminescence, counter-screen for SUMOylation pathway inhibitor project, dose response (AID 463199)
Activity calls are given as the source filed them.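 Rule for the calls: active = AC50, the dose giving half-maximal effect, exceeds a fixed cutoff for a compound that rescues yeast growth under heat; inactive = the rest, inconclusive results apart.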
Just give me one of these, please: active, inactive

Below are worked cases with known answers.
INSERT INTO assay_data (compound, subject_of_test, label_value) VALUES
  ('COc1ccc(C(=O)Nc2ccccc2C(=O)NCCN2CCOCC2)cc1OC', 'S. cerevisiae Burl-1 ts mutant growth, BacTiter-Glo, 38.5C 24 h', 'inactive'),
  ('CCc1ccc(NC(=O)N2CCC(c3ccccc3)C2)cc1 (configuration not stated)', 'S. cerevisiae Burl-1 ts mutant growth, BacTiter-Glo, 38.5C 24 h', 'inactive'),
  ('COc1ccc2c(Cl)c(C(=O)NN3CCN(C)CC3)sc2c1', 'S. cerevisiae Burl-1 ts mutant growth, BacTiter-Glo, 38.5C 24 h', 'inactive'),
  ('O=C(c1cnn2c(C(F)(F)F)cc(-c3ccco3)nc12)N1CCCc2ccccc21', 'S. cerevisiae Burl-1 ts mutant growth, BacTiter-Glo, 38.5C 24 h', 'inactive'),
  ('O=C(CSc1nnc(COc2ccccc2Cl)o1)NC(=O)NC1CCCC1', 'S. cerevisiae Burl-1 ts mutant growth, BacTiter-Glo, 38.5C 24 h', 'inactive');

What is the recorded call for this compound in the test? COc1cccc(-c2nn(-c3ccccc3)cc2/C=C(/NC(=O)c2ccccc2)C(=O)O)c1 inactive

What is the recorded call for this compound in the test? O=C(OCCCN=C1NS(=O)(=O)c2ccccc21)c1cccs1 inactive

What is the recorded call for this compound in the test? CCCc1nc2c(nnn2Cc2ccccc2F)c(=O)[nH]1 inactive
